test system: dengue virus type 1; test: Antiviral activity against DENV1 infected in human Huh7 cells; assay type: functional, organism-based; settings: Huh-7
Overview of reported EC50 across a group of molecules:
Numbers only here, please. The scale is nM.

Reference set, count: 4
molecule | metric | reported
O=C1CC2(C(=O)Nc3ccc(Cl)cc32)c2cnn(Cc3ccc(Cl)cc3)c2N1 (stereo unspecified) | EC50 | 2400
O=C1CC2(C(=O)Nc3ccc(Cl)cc32)c2cnn(Cc3ccc(C(F)(F)F)cc3C(F)(F)F)c2N1 (stereo unspecified) | EC50 | 1600
O=C1CC2(C(=O)Nc3ccc(Cl)cc32)c2cnn(Cc3ccc(Cl)cc3F)c2N1 (stereo unspecified) | EC50 | 2300
Cc1nn(Cc2ccc(Cl)cc2)c2c1C1(CC(=O)N2)C(=O)Nc2ccc(Cl)cc21 (stereo unspecified) | EC50 | 2500

input: Please report the recorded EC50 for O=C1CC2(C(=O)Nc3ccc(Cl)cc32)c2cnn(Cc3ccc(Cl)c(Cl)c3)c2N1 (stereo unspecified) .
output: 1800

input: Now the same for O=C1CC2(C(=O)Nc3ccc(Cl)cc32)c2cnn(Cc3ccc(Cl)c(F)c3)c2N1 (stereo unspecified)
output: 1800

---

Overview of reported CC50 across a group of molecules:
tested on: Huh-7; test: Cytotoxicity against human HuH7 cells infected with DENV2 assessed as reduction in cell viability; type: cell-based

molecule | CC50
O=C1CC2(C(=O)Nc3ccc(Cl)cc32)c2cnn(Cc3ccc(Cl)c(Cl)c3)c2N1 (configuration not stated) | > 10 µM
O=C1CC2(C(=O)Nc3ccc(Cl)cc32)c2cnn(Cc3ccc(Cl)cc3)c2N1 (configuration not stated) | > 10 µM
O=C1CC2(C(=O)Nc3ccc(Cl)cc32)c2cn(Cc3ccc(Cl)c(Cl)c3)nc2N1 (configuration not stated) | > 10 µM
O=C1CC2(C(=O)Nc3ccc(Cl)cc32)c2cnn(Cc3ccc(Cl)cc3F)c2N1 (configuration not stated) | > 10 µM
O=C1CC2(C(=O)Nc3ccc(Cl)cc32)c2cnn(Cc3ccc(Cl)c(F)c3)c2N1 (configuration not stated) | > 10 µM
Cc1nn(Cc2ccc(Cl)cc2)c2c1C1(CC(=O)N2)C(=O)Nc2ccc(Cl)cc21 (configuration not stated) | > 10 µM
NC(=O)C1C(=O)Nc2c(cnn2Cc2ccc(Cl)cc2)C12C(=O)Nc1ccc(Cl)cc12 (configuration not stated) | 50 µM
CC(=O)C1C(=O)Nc2c(cnn2Cc2ccc(Cl)cc2)C12C(=O)Nc1ccc(Cl)cc12 (configuration not stated) | > 20 µM

input: Please report the recorded CC50 for O=C1CC2(C(=O)Nc3ccc(Cl)cc32)c2c(C3CC3)nn(Cc3ccc(Cl)cc3)c2N1 (configuration not stated) .
output: > 10 µM

input: Now the same for N#CC1C(=O)Nc2c(cnn2Cc2ccc(Cl)cc2)C12C(=O)Nc1ccc(Cl)cc12 (configuration not stated)
output: 50 µM

input: Now the same for O=C1CC2(C(=O)Nc3ccc(Cl)cc32)c2cn(Cc3ccc(Cl)cc3)nc2N1 (configuration not stated)
output: > 10 µM

input: Now the same for O=C1CC2(C(=O)Nc3ccc(Cl)cc32)c2cnn(Cc3ccc(C(F)(F)F)cc3C(F)(F)F)c2N1 (configuration not stated)
output: > 10 µM
